- Target under test: EGFR L858R+T790M, endogenous (NCI-H1975) (Homo sapiens, UniProt P00533, L858R/T790M)
- Construct: NCI-H1975 (EGFR L858R+T790M, endogenous)
- Sequence (P00533 25-1210 T790M/L858R): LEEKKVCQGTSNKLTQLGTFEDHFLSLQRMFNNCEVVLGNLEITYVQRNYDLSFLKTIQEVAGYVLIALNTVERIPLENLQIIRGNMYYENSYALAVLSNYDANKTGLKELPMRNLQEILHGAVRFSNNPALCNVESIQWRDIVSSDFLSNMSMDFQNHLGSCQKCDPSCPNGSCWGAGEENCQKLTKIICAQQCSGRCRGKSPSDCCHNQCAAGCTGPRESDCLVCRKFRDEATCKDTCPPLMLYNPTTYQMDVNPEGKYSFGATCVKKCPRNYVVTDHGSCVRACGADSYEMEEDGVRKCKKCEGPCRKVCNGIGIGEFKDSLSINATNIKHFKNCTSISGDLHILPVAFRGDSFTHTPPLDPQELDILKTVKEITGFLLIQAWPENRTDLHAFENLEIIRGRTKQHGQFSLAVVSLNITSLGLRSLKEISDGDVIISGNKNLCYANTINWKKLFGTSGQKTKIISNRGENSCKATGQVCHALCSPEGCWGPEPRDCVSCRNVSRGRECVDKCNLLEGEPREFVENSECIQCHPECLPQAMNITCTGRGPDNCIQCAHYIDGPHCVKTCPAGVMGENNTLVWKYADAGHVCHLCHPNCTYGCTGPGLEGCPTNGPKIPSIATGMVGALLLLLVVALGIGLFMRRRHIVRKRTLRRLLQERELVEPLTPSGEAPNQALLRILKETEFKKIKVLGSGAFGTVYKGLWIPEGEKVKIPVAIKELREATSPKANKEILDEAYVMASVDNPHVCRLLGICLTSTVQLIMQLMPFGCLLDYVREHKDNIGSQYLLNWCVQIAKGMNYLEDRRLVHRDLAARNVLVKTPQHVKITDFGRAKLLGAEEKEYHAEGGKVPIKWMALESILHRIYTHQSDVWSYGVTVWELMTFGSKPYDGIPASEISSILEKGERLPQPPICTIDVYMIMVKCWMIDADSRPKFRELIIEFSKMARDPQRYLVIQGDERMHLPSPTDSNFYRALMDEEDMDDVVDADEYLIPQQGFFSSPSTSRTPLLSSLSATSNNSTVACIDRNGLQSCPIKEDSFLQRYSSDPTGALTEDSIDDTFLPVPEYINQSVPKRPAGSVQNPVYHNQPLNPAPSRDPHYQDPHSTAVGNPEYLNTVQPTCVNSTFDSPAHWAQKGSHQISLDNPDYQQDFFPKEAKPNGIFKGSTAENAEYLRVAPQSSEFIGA
- Assay notes: pEGFR Y1068 ELISA assay, NCI-H1975 cells
- Condition description: inhibition of phosphorylation of EGFR at Tyr1068; NCI-H1975 NSCLC cells; 2 hr compound incubation
Property label: IC50 (nM)

                                   compound  property_label  reading
0  C=CC(=O)N1CC[C@@H](Nc2nc(Nc3ccc(N4CCN(C)CC4)cc3)c3ncn(C(C)C)c3n2)C1            IC50       29
1  C=CC(=O)N1CC(C)(Nc2nc(Nc3cnn(C)c3)c3ncn(C(C)C)c3n2)C1            IC50       65
2  C=CC(=O)N[C@@H]1CN(c2nc(Nc3cn(C4CCN(C)C4)nc3C)c3ncn(C(C)C)c3n2)C[C@H]1F (stereo partly shown) [Example 65]            IC50       14

a = C=CC(=O)N1C[C@@H]2CN(c3nc(Nc4cnn(C)c4)c4ncn(CC)c4n3)C[C@@H]2C1
b = C=CC(=O)N[C@@H]1CN(c2nc(Nc3cnn(C4CCN(C)CC4)c3)c3ncn(C(C)C)c3n2)C[C@H]1F
Of a and b , whose reported IC50 is numerically smaller? Lab log: write the label of the selected item as the result.
b
(b: 20 nM, a: 88 nM)

a = C=CC(=O)N[C@@H]1CN(c2nc(Nc3cnn(C)c3)c3ncn(C(C)C)c3n2)C[C@H]1OC
b = C=CC(=O)Nc1cccc(Oc2nc(Nc3ccc(N4CCN(C)CC4)cc3)c3ncn(C(C)C)c3n2)c1
Of a and b , whose reported IC50 is numerically smaller? Lab log: write the label of the selected item as the result.
b

Reference source for all entries: patent US9290496B2
